B1: Mineralocorticoid receptor, residues 600 to 675; numbered along this chain, P08235 (parent)
chain: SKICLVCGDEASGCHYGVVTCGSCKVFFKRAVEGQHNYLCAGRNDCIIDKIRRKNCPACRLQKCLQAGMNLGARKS

variants of: B1; test: abundance fitness (aPCA) (normalised: wild type 0, dead -1); higher = more abundant; growth selection in yeast, the domain comes from the species named; details: Homo sapiens
readoutName: abundance fitness
Numbers only.

Sample answers from the record:
[[record]]
monomersequence = "SKICLVCGDEASGCHYGVVTCGSCKVFFKRAVEGQHNYLCAGRNDCIIDKIRRKNCPACRLQKCLQAGMNLGARKV"
readoutname = "abundance fitness"
numericreadout = -0.173

[[record]]
monomersequence = "SKICLVCGDEASGCHYGVVTCGSCKVFFKRAVEGQHNYLCAGRNDCIIDKIRRKNCPACRLQKNLQAGMNLGARKS"
readoutname = "abundance fitness"
numericreadout = -0.886

[[record]]
monomersequence = "SKICLVCGDEASGCHYGVVTCGSCKVFFKRAVEGQHNYLCAGRNDCGIDKIRRKNCPACRLQKCLQAGMNLGARKS"
readoutname = "abundance fitness"
numericreadout = -0.096

[[record]]
monomersequence = "SKICLVCGDEASGCHYGVVTCGSCKVFFKRAVEGQHNYLCAGRNDCIIDKIRRKNCPACRLQKCLWAGMNLGARKS"
readoutname = "abundance fitness"
numericreadout = -0.029


Take each entry in turn and give its abundance fitness.
1. SKICLVCGDEASGCHYGVVTCGSCKVFFKRANEGQHNYLCAGRNDCIIDKIRRKNCPACRLQKCLQAGMNLGARKS
2. SKICLVCGDEASGCHYGVVTEGSCKVFFKRAVEGQHNYLCAGRNDCIIDKIRRKNCPACRLQKCLQAGMNLGARKS

[out]
1. -0.08
2. -0.854

Take each entry in turn and give its abundance fitness.
1. SKICLVCGNEASGCHYGVVTCGSCKVFFKRAVEGQHNYLCAGRNDCIIDKIRRKNCPACRLQKCLQAGMNLGARKS
2. SKICLVCGDEASGCHYGVVTCGSCKVFFKRAVEGQHNYLCAGRNDCIIDKIRRKNCPACRLYKCLQAGMNLGARKS

[out]
[-0.144, -0.121]

Take each entry in turn and give its abundance fitness.
1. SKICLVCGDEAPGCHYGVVTCGSCKVFFKRAVEGQHNYLCAGRNDCIIDKIRRKNCPACRLQKCLQAGMNLGARKS
2. SKICLVCGDEASGCHYGVVNCGSCKVFFKRAVEGQHNYLCAGRNDCIIDKIRRKNCPACRLQKCLQAGMNLGARKS
3. SKICLVCGDEASGCHYGVVTCGSCDVFFKRAVEGQHNYLCAGRNDCIIDKIRRKNCPACRLQKCLQAGMNLGARKS
4. SKICLVCVDEASGCHYGVVTCGSCKVFFKRAVEGQHNYLCAGRNDCIIDKIRRKNCPACRLQKCLQAGMNLGARKS
5. SKICLVCGDEASGCHYGVVTCGSCKVFFKRAVEGQHNYLCAGRNDCIIDKIRRKNCPACRLQKLLQAGMNLGARKS
6. SKICLVCGDEASGCHAGVVTCGSCKVFFKRAVEGQHNYLCAGRNDCIIDKIRRKNCPACRLQKCLQAGMNLGARKS
7. SKICLMCGDEASGCHYGVVTCGSCKVFFKRAVEGQHNYLCAGRNDCIIDKIRRKNCPACRLQKCLQAGMNLGARKS
8. SKICLVCGDEAGGCHYGVVTCGSCKVFFKRAVEGQHNYLCAGRNDCIIDKIRRKNCPACRLQKCLQAGMNLGARKS

[out]
-0.008
0.064
-0.087
-0.621
-0.351
-0.039
-0.416
-0.181

Take each entry in turn and give its abundance fitness.
1. SKICLVCGDEASGCHYGVVTCGSCKVFFKRAVEGQHNYLCAGRNDCIIDKIRRKNCPRCRLQKCLQAGMNLGARKS
2. SKICLVCGDEASGCHYGVVTCGSCKVFFKRAVEGQHNYLCAGRNDCIIDKIRRKHCPACRLQKCLQAGMNLGARKS
3. SKICLVCGDEASGCHYGVVTCGSCKVFFKRGVEGQHNYLCAGRNDCIIDKIRRKNCPACRLQKCLQAGMNLGARKS
4. SKICLVCGDEASGCHYGVVTCGSCKVFFKRAVEGQHNYLCAGRMDCIIDKIRRKNCPACRLQKCLQAGMNLGARKS

[out]
-0.033
-0.038
0.001
-0.081

Where these numbers come from: the Human Domainome abundance scans (Beltran et al. 2025)
